Entries and their measured log10(EC50) follow.
biological target: OGA (Homo sapiens, UniProt O60502); construct: endogenous in cells; host or cells: HEK293 cells inducible for P301L mutant human Tau (isoform 2N4R); assay: OGA cellular assay (ICC detection of O-GlcNAcylated proteins in HEK293 cells inducible for P301L mutant human Tau); assay type: cell-based; details: HEK293 cells inducible for P301L mutant human Tau, 6 hours incubation, ICC O-GlcNAcylation; read-out: Cellular hOGA; pEC50 (converted)
Sequence (O60502 whole entry, canonical isoform): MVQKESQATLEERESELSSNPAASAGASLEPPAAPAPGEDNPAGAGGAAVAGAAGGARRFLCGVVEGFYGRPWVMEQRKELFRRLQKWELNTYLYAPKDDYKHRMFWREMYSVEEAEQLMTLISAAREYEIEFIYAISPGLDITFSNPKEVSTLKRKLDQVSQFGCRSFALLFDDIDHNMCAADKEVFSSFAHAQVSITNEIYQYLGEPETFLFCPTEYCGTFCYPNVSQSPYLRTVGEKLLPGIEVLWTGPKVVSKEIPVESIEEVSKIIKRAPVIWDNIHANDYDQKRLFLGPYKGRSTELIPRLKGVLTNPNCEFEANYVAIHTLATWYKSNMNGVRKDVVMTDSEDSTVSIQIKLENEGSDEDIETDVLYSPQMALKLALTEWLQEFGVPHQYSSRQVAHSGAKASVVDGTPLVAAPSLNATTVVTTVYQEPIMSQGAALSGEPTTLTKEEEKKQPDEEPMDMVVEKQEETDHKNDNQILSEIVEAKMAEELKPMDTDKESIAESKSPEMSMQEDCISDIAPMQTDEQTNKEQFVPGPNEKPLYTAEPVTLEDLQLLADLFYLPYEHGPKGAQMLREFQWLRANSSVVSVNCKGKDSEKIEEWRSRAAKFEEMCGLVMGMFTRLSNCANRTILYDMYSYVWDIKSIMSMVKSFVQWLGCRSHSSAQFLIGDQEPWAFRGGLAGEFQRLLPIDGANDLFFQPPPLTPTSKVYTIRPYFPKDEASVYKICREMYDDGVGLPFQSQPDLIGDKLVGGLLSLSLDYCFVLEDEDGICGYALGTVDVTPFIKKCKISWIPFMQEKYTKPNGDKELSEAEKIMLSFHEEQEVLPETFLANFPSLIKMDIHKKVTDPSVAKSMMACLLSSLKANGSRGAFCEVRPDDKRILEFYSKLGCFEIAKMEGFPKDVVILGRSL
Please interpret these as log10 of EC50 where EC50 is in nM.

Here is how some compounds turned out for log10(EC50).
compound	log10(EC50)
Cc1cc(O[C@@H]2CCN(C(C)c3nc4c(cc3F)OCCO4)C2)cc(C)n1 (stereo partly drawn) [Product 39]	2.40
Cc1cc(O[C@@H]2CCN(C(C)c3nc4c(cc3F)OCCO4)C2)cc(C)n1 (single isomer, unassigned) [Product 40]	2.20
COc1cc(C[C@H]2CCN(C(C)c3cc4c(cc3F)OCCO4)C2)cc(C)n1 (single isomer, unassigned) [Product 11]	2.30
Cc1cc(O[C@@H]2CCN(C(C)c3nc4c(cc3F)OCCO4)C2)nc(C)n1 (stereo partly drawn)	2.64
Cc1cc(O[C@@H]2CCN(C(C)c3nc4c(cc3F)OCCO4)C2)cc(C)n1 (stereo partly drawn) [Product 38]	2.50

As a next step, examine the compound that follows.
Field log10(EC50) (entry Cc1cc(O[C@@H]2CCN(C(C)c3nc4c(cc3F)CCO4)C2)cc(C)n1 (stereo partly drawn) [Product 17] ) reads 1.30

* * *

Entries and their measured Emax follow.
biological target: recombinant human Meningioma Expressed Antigen 5 (MGEA5), also referred to as O-GlcNAcase (OGA) (Homo sapiens, UniProt O60502); construct: Full length OGA enzyme was purchased at OriGene (cat #TP322411); purchased OriGene TP322411; experiment: OGA biochemical assay (inhibition of FM-GlcNAc hydrolysis, fluorescence); details: FM-GlcNAc substrate, maximal effect, read-out: Enzymatic Emax (%)
Sequence (O60502 whole entry): as the sequence (O60502 whole entry, canonical isoform) above
The reply should be a number in %, with the unit left off.

Here is how some compounds turned out for Emax.
compound	Emax (%)
Cc1cc(OCC2(C)CCN(C(C)c3ccc4c(n3)OCCO4)C2)cc(C)n1 (stereo not shown) [Product 77]	94
Cc1cc(CC2(C)CCN(C(C)c3ccc4c(n3)OCCO4)C2)cc(C)n1 (stereo not shown) [Product 58]	100
COc1cc(CC2(C)CCN(C(C)c3ccc4c(n3)OCCO4)C2)cc(C)n1 (single isomer, unassigned) [Product 95]	100

Field Emax (entry Cc1cnc(C[C@H]2CCN(C(C)c3cc4c(cc3F)OCCO4)C2)c(C)n1 (mixture of isomers) [Product 96] ) reads 101

Field Emax (entry Cc1cc(O[C@@H]2CCN(C(C)c3nc4c(cc3F)OCCO4)C2)cc(C)n1 (single isomer, unassigned) [Product 40] ) reads 100

Field Emax (entry Cc1cc(CO[C@@H]2CCN(C(C)c3ccc4c(n3)OCCO4)C2)cc(C)n1 (mixture of isomers) [Product 115] ) reads 94

Field Emax (entry COc1cc(C[C@@H]2CCN([C@H](C)c3cc4c(cc3F)OCCO4)C2)cc(C)n1 [Product 42] ) reads 93

* * *

target: recombinant human Meningioma Expressed Antigen 5 (MGEA5), also referred to as O-GlcNAcase (OGA) (Homo sapiens); construct: Full length OGA enzyme was purchased at OriGene (cat #TP322411); purchased OriGene TP322411; experiment: OGA biochemical assay (inhibition of FM-GlcNAc hydrolysis, fluorescence); settings: FM-GlcNAc substrate, 6 h at room temperature, read-out: Enzymatic hOGA, pIC50 (converted)
Entries and their measured IC50 follow.

Here is how some molecules turned out for IC50.
molecule	IC50
COc1cc(C[C@H]2CCN(C(C)c3nc4c(cc3F)OCCO4)C2)cc(C)n1 (stereo partly shown)	20 nM
Cc1cc(O[C@@H]2CCN(C(C)c3nc4c(cc3F)CCO4)C2)cc(C)n1 (stereo partly shown) [Product 17]	2.51 nM
Cc1cc(C[C@@H]2CCN(C(C)c3cnc4c(c3)OCCN4)C2)cc(C)n1 (mixture of isomers)	31.6 nM
COc1cc(O[C@@H]2CCN(C(C)c3ccc4c(n3)OCCO4)C2)cc(C)n1 (mixture of isomers)	1580 nM
Cc1cc(C[C@@H]2CCN(C(C)c3cnc4c(c3)OCCO4)C2)cc(C)n1 (single isomer, unassigned) [Product 36]	200 nM
Cc1cc(C[C@H]2CCN(C(C)c3cc4c(cc3F)OCCO4)C2)cc(C(F)(F)F)n1 (stereo partly shown)	20 nM

As a next step, examine the molecule that follows.
Field IC50 (entry COc1cc(C[C@]2(C)CCN([C@@H](C)c3ccc4c(n3)OCCO4)C2)cc(C)n1 (single isomer, unassigned) ) reads 7940 nM
